- Tested on: Escherichia coli
- assay.details: Antimicrobial activity against translocase tatC-deficient Escherichia coli B1LK0A harboring beta-lactamase CTX-M-14 by liquid microdilution method
- Assay type: functional
property.label: MIC (µg/mL)

[[record]]
mol = "CC(=O)OCC1=C(C(=O)O)N2C(=O)[C@@H](NC(=O)Cc3cccs3)[C@H]2SC1"
property_label = "MIC"
experimental_value = 512

[[record]]
mol = "CC(C)(O/N=C(\\C(=O)N[C@@H]1C(=O)N2C(C(=O)[O-])=C(C[n+]3ccccc3)CS[C@H]12)c1csc(N)n1)C(=O)O"
property_label = "MIC"
experimental_value = 1

[[record]]
mol = "CO/N=C(\\C(=O)N[C@@H]1C(=O)N2C(C(=O)O)=C(COC(C)=O)CS[C@H]12)c1csc(N)n1"
property_label = "MIC"
experimental_value = 16

[[record]]
mol = "CC1(C)S[C@@H]2[C@H](NC(=O)[C@H](N)c3ccc(O)cc3)C(=O)N2[C@H]1C(=O)O"
property_label = "MIC"
experimental_value = 2050

[[record]]
mol = "CCN1CCN(C(=O)N[C@@H](C(=O)N[C@@H]2C(=O)N3[C@@H]2SC(C)(C)[C@@H]3C(=O)O)c2ccccc2)C(=O)C1=O"
property_label = "MIC"
experimental_value = 512

